Experiment: Aqueous solubility at pH 6.5
Type: physicochemical
Readout kind: solubility (µg/mL)
Quick reminder: number only, in µg/mL, skip the unit.

Below are worked cases with known answers.
>>> result_value("COC[C@H](C1CC1)n1cc(Cl)nc(Nc2cc(C)c(OC)nc2C)c1=O")
6
>>> result_value("COC[C@H](C1CC1)n1cc(C#N)nc(Nc2cc(C)c(OC(F)F)nc2C)c1=O")
4

Here is the next item to consider.
molecule `CC[C@H](C1CC1)n1cc(C#N)nc(Nc2cc(C)c(OC)nc2C)c1=O` , solubility observed: 1
